Source listed as paper PMC8882856.

Target: UniProtKB P18089
Experiment: ^3H‐rauwolscine whole cell competition binding, CHO‐α2B cells
Conditions: ratio of KD values
endpoint_name: Selectivity ratio α2B vs α2C (higher affinity for α2B)

> print(dat)
                                   molecule  observed.measurement
1  CN(C)CC/C=C1\c2ccccc2CSc2ccccc21 [dosulepin]                   3.7
2  CCn1ccnc1CC1COc2ccccc2O1 (centres unmarked) [imiloxan]                   1.6
3  COc1ccc(NC(=O)N2CCc3c2ccc2ccccc32)cc1N1CCN(C)CC1 [S32212]                   4.2
4  CN(CCCN1c2ccccc2CCc2ccccc21)CC(=O)c1ccc(Cl)cc1 [lofepramine]                   2.1
5  CN(C)CCCN1c2ccccc2CCc2ccccc21 [imipramine]                   3.0

---

Molecular target: human α2C‐adrenoceptor (Homo sapiens)
Assay: ^3H‐rauwolscine whole cell competition binding, CHO‐α2C cells
Details: fold, higher affinity at α2C than α2A; 1 = no selectivity
endpoint_name: Selectivity ratio α2A vs α2C (α2C-selective)

> print(dat)
                                   molecule  observed.measurement
1  COc1ccccc1N1CCN(CCN2C(=O)c3ccccc3C(C)(C)C2=O)CC1                  18.2
2  O=C1Nc2ccccc2C2=NC(CN3CCN(c4ccccc4)CC3)CN12 (stereo not shown)                   1.7
3  COc1cc2nc(N3CCN(C(=O)COc4c(OC)cccc4C(C)C)CC3)nc(N)c2cc1OC                  10.7
4  COc1ccccc1N1CCN(CC2CN3C(=O)N(C)c4ccccc4C3=N2)CC1 (stereo not shown)                   5.1

---

Target sequence: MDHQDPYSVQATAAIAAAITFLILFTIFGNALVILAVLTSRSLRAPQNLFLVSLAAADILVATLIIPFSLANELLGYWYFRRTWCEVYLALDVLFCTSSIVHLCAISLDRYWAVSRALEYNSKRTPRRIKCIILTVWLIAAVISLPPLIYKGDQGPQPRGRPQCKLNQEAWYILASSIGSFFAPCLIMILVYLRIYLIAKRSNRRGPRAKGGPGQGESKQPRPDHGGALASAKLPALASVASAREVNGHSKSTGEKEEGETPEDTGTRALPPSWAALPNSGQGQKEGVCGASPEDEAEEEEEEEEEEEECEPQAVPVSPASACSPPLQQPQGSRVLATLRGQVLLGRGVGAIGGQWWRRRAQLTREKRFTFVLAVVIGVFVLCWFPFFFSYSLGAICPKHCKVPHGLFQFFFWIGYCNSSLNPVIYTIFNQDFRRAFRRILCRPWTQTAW
The following molecules are listed with their measured Kd values.
endpoint_name: Kd (µM)

> print(dat)
                              line.notation  observed.measurement
1  COc1ccc(NC(=O)N2CCc3c2ccc2ccccc32)cc1N1CCN(C)CC1                0.0158
2  CCS(=O)(=O)N1CCC[C@@H]2CN3CCc4cc(OC)ccc4[C@@H]3C[C@@H]21               0.00269
3  COc1cccc2c1CCC[C@H]2CN(C)CCc1ccc2ccoc2c1.CS(=O)(=O)O                 0.302

---

Target: human β1‐adrenoceptor (Homo sapiens, UniProt P08588)
Sequence (P08588 whole entry): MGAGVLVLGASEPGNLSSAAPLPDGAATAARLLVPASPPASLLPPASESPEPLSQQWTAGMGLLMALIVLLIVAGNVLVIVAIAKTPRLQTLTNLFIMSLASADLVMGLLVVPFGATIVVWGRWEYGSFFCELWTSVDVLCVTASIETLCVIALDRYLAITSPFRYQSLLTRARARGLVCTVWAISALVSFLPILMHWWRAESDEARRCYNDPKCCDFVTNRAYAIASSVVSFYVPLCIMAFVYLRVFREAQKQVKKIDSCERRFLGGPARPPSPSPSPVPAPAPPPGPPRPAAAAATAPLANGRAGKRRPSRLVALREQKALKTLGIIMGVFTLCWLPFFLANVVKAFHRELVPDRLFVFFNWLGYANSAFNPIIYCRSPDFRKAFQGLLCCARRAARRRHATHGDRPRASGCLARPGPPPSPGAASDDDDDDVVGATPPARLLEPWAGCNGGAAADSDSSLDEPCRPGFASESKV
Test: cell-based
endpoint_name: IC50

> print(dat)
                                   compound  observed.measurement
1  OCCN1CCN(CCC=C2c3ccccc3Sc3ccc(C(F)(F)F)cc32)CC1               > 10 µM
2  Cc1nc2n(c(=O)c1CCN1CCC(c3noc4cc(F)ccc34)CC1)CCCC2O (stereo not drawn)             > 31.6 µM
3  C[C@H](Cc1cc2c(c(C(N)=O)c1)N(CCCO)CC2)NCCOc1ccccc1OCC(F)(F)F               > 10 µM
4  CC(C(O)c1ccc(O)cc1)N1CCC(Cc2ccccc2)CC1 (stereo not drawn)               > 10 µM
5  O=C1CCC(=O)N1C[C@H]1CC[C@H]2CN(c3ncccn3)CCN2C1 [sunepitron]             > 1000 µM
6             CN(C)CCCN1c2ccccc2CCc2ccccc21              > 100 µM
7  CN(CCCN1c2ccccc2CCc2ccccc21)CC(=O)c1ccc(Cl)cc1              > 100 µM
8  Fc1ccc([C@@H]2CCNC[C@H]2COc2ccc3c(c2)OCO3)cc1             > 31.6 µM
9         CNCC[C@H](Oc1cccc2ccccc12)c1cccs1             > 31.6 µM

---

The following compounds are listed with their measured Selectivity ratio α2A vs α2C (higher affinity for α2C) values.
Biological target: human α2C‐adrenoceptor (Homo sapiens)
Sequence (P18825 1-462): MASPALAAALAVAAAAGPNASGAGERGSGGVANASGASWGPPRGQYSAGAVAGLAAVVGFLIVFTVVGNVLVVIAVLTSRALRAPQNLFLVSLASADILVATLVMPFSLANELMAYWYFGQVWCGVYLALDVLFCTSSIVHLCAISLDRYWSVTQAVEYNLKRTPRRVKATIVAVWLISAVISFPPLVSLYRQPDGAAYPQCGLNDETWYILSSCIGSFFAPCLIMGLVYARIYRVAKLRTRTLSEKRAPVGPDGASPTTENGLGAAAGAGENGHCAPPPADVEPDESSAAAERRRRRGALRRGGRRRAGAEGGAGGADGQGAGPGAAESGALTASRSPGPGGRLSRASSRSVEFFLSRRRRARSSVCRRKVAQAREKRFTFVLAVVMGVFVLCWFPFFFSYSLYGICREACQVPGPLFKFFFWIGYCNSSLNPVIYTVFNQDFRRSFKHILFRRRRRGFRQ
Assay: ^3H‐rauwolscine whole cell competition binding, CHO‐α2C cells
Settings: ratio of KD values
endpoint_name: Selectivity ratio α2A vs α2C (higher affinity for α2C)

> print(dat)
                                    compound                                 system  observed.measurement
 1  CN(CCCN1c2ccccc2CCc2ccccc21)CC(=O)c1ccc(Cl)cc1  human α2C‐adrenoceptor (Homo sapiens)                   2.6
 2  COc1ccc(NC(=O)N2CCc3c2ccc2ccccc32)cc1N1CCN(C)CC1  human α2C‐adrenoceptor (Homo sapiens)                   3.6
 3  O=C1c2ccccc2CCC1CNCCc1ccc(O)cc1 (stereo not drawn)  human α2C‐adrenoceptor (Homo sapiens)                   4.0
 4           Cc1ccc(Sc2ccccc2N2CCNCC2)c(C)c1  human α2C‐adrenoceptor (Homo sapiens)                   1.6
 5  CC(C(O)c1ccc(O)cc1)N1CCC(Cc2ccccc2)CC1 (stereo not drawn)  human α2C‐adrenoceptor (Homo sapiens)                   6.2
 6  CN(C)CC/C=C1\c2ccccc2CSc2ccccc21 [dosulepin]  human α2C‐adrenoceptor (Homo sapiens)                   3.0
 7             CN(C)CCCN1c2ccccc2CCc2ccccc21  human α2C‐adrenoceptor (Homo sapiens)                   4.4
 8  CC(C)(Cc1c[nH]c2ccc(Cl)cc12)NCCOc1ccccc1OCC1CC1  human α2C‐adrenoceptor (Homo sapiens)                   1.4
 9  Cc1c[nH]c(=O)n(CCCN2CCN(c3ccccc3OCC(F)(F)F)CC2)c1=O  human α2C‐adrenoceptor (Homo sapiens)                   6.6
10  CCS(=O)(=O)N1CCC[C@@H]2CN3CCc4cc(OC)ccc4[C@@H]3C[C@@H]21  human α2C‐adrenoceptor (Homo sapiens)                   2.7
11  O=C1Nc2ccccc2C2=NC(CN3CCN(c4ccccc4)CC3)CN12 (stereo not drawn)  human α2C‐adrenoceptor (Homo sapiens)                   1.7
12  O=C(NC1CCN(CCc2c[nH]c3ccccc23)CC1)c1ccccc1  human α2C‐adrenoceptor (Homo sapiens)                   4.7

---

Target: UniProtKB P18825
Experiment: cell-based
endpoint_name: Kd (nM)

> print(dat)
                                   compound            system  endpoint.name  unit.descriptor  observed.measurement
1  CN(C)CCCN1c2ccccc2CCc2ccccc21 [imipramine]  UniProtKB P18825             Kd               nM                  1290
2  CN(CCCN1c2ccccc2CCc2ccccc21)CC(=O)c1ccc(Cl)cc1 [lofepramine]  UniProtKB P18825             Kd               nM                  5250
3  C[C@H](Cc1cc2c(c(C(N)=O)c1)N(CCCO)CC2)NCCOc1ccccc1OCC(F)(F)F [silodosin]  UniProtKB P18825             Kd               nM                   759
4  CC(CN(C)C)CN1c2ccccc2CCc2ccccc21 (stereo not drawn) [trimipramine]  UniProtKB P18825             Kd               nM                   427
5  O=C(NC1CCN(CCc2c[nH]c3ccccc23)CC1)c1ccccc1 [indoramin]  UniProtKB P18825             Kd               nM                  1580
6  CC(CN1c2ccccc2Sc2ccccc21)N(C)C (stereo not drawn) [promethazine]  UniProtKB P18825             Kd               nM                  2880
7  CCn1ccnc1CC1COc2ccccc2O1 (stereo not drawn) [imiloxan]  UniProtKB P18825             Kd               nM                   537
8  OCCN1CCN(CCC=C2c3ccccc3Sc3ccc(C(F)(F)F)cc32)CC1 [flupenthixol]  UniProtKB P18825             Kd               nM                   132
9  CC(C(O)c1ccc(O)cc1)N1CCC(Cc2ccccc2)CC1 (stereo not drawn) [ifenprodil]  UniProtKB P18825             Kd               nM                   158
